- Test system: MDA-MB-231
- protocol: Growth inhibition of human MDA-MB-231 cells after 24 hrs by MTT assay
- Type: functional, cell-based
- conditions-used: MDA-MB-231, 24 h
pIC50: −log10 of the molar value.
observed-property: pIC50

Below: 3 molecules and their reported pIC50.
• O=[N+]([O-])OCCCCCCO = 4.04
• COc1cccc2oc3cc(OCCO[N+](=O)[O-])cc(O)c3c(=O)c12 = 4.95
• O=c1c2ccc(O)cc2oc2cc(OCCCCCO[N+](=O)[O-])cc(O)c12 = 4.38

[P] O=c1c2cc(O)ccc2oc2cc(OCCCCCO[N+](=O)[O-])cc(O)c12
[Q] O=c1c2ccccc2oc2cc(OCCO[N+](=O)[O-])cc(O)c12
## Task Among P and Q , whose measured pIC50 is the smaller figure? Answer by quoting the chosen item's label.
## Result Q
